READOUT KIND: melting point

- CC(C)(C)C(=O)/C=C/c1cccc([N+](=O)[O-])c1: 92 to 93 °C
- CC(C)(C)C(=O)/C=C/c1ccc([N+](=O)[O-])cc1: 125 to 126 °C

Here is the next item to consider.
// sample O=C(/C=C/c1ccc(Cl)cc1)c1ccc2ccccc2c1 [Compound 10a] , its melting point was 162 to 164 °C
